# key: entry, value: normalized growth
PROTOCOL: chemical genetic growth profiling, strain panel (AID 1159580);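 further: tested at 20 µM; growth read once vehicle control cultures reached saturation at 30 °C; 1 = growth at the plate median or of vehicle wells; lower values mean less growth of the strain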
PARTICULARS: S. cerevisiae deletion strains, growth OD, locus YPL055C, strain LGE1, hits give low values
The whole screen tested about 5,500 compounds, of which about 2,000 (36%) were called active. Roughly 18% stayed inconclusive and do not appear here. The list shows a part of the results.
PROPERTY MEASURED: normalized growth

> print(dat)
                                   molecule  property.measured  result.value
1                                    NCCCCN  normalized growth          0.99
2  Oc1ccc2c3c1OC1[C@@H](O)CC[C@@]4(O)[C@@H](C2)N(CC2CCC2)CC[C@]314 (some centres undefined)  normalized growth          1.05
3  CC[C@@]1(O)C(=O)OCc2c1cc1n(c2=O)Cc2cc3cc(O)ccc3nc2-1  normalized growth          1.02
4  C[C@@H]1CC[C@@]23CCC4(C)[C@@](C=CC5[C@@]6(C)CC[C@H](O)C(C)(C)C6CC[C@]54C)(OC2=O)C3[C@H]1C (some centres undefined)  normalized growth          1.06
5  CCOC(=O)C1C(=O)C=C(c2cccs2)CC1c1ccc(OC)c(OC)c1Cl (centres undefined)  normalized growth          1.04
6  CC1=C2C(O)C(=O)OC3CC4C(C)(C)C(=O)C=C[C@]4(C)C(CC1)[C@]23C (some centres undefined)  normalized growth          1.03
7           Cc1ccc(S(=O)(=O)N2CCC(N)=N2)cc1  normalized growth             1
8  CC1(C)C(=O)CC[C@@]2(C)C1C[C@@H](O)[C@@]1(C)C3=CC(=O)O[C@@H](c4ccoc4)[C@]3(C)CCC21 (some centres undefined)  normalized growth          1.01
9  NC(=NS(=O)(=O)c1cc(Cl)c(Oc2ccc([N+](=O)[O-])cc2Cl)c(Cl)c1)c1cccnc1  normalized growth         0.912

====

PROTOCOL: chemical genetic growth profiling, strain panel (AID 1159580);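 further: tested at 20 µM; growth read once vehicle control cultures reached saturation at 30 °C; 1 = growth at the plate median or of vehicle wells; lower values mean less growth of the strain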
PARTICULARS: S. cerevisiae deletion strains, growth OD, locus YMR307W, strain GAS1, hits give low values
Out of some 5,500 compounds screened, about 2,000 (36%) were called active. Inconclusive results (about 18%) are left out. This is one part of the list.
normalized growth strictly under 1 means Fulfilled; at 1 or over means Not fulfilled.

MOLECULE	CATEGORY
O=c1c(O)cccc2c(C3Oc4cc(O)cc(O)c4CC3O)cc(O)c(O)c12 (stereo not given)	Fulfilled
C[C@]12CC[C@H](O)C[C@H]1CCC1C2CC[C@]2(C)[C@@H](C3=CC(=O)OC3)[C@@H](O)C[C@]12O (stereo not given in full)	Not fulfilled
COc1nc(NC(C)C)nc(NC(C)C)n1	Not fulfilled
CCCCCC(O)C1C(=O)OC(C)C(O)/C=C/C=C/C=C/C=C/C=C(\C)C(O)CC(O)CC(O)CC(O)CC(O)CC(O)CC1O (stereo not given)	Not fulfilled
COc1cc(O)c2c(=O)cc(-c3ccc(OC)c(-c4c(O)cc(O)c5c(=O)cc(-c6ccc(O)cc6)oc45)c3)oc2c1	Not fulfilled
C[C@H]1O[C@@H](O[C@H]2[C@@H](O)C[C@H](O[C@H]3[C@@H](O)C[C@H](O[C@H]4CC[C@]5(C)C6CC[C@]7(C)[C@@H](C8=CC(=O)OC8)CC[C@]7(O)C6CC[C@@H]5C4)O[C@@H]3C)O[C@@H]2C)C[C@H](O)[C@@H]1O (stereo not given in full)	Not fulfilled
COc1ccc(-c2cc(=O)c3c(O)cc(O)cc3o2)cc1O	Not fulfilled
COc1c(O)cc2c(c1O)[C@H]1O[C@H](CO)[C@@H](O)[C@H](O)[C@@H]1OC2=O	Fulfilled
COc1cc(C)c2c(=O)c3c(O)cc(O)cc3oc2c1	Fulfilled
C[C@H]1O[C@@H](O[C@H]2[C@@H](O)C[C@H](O[C@H]3[C@@H](O)C[C@H](O[C@H]4CC[C@]5(C)C6C[C@@H](O)[C@]7(C)[C@@H](C8=CC(=O)OC8)CC[C@]7(O)C6CC[C@@H]5C4)O[C@@H]3C)O[C@@H]2C)C[C@H](O)[C@@H]1O (stereo not given in full)	Not fulfilled
O=c1c(O)cc([C@H]2Oc3cc(O)cc(O)c3C[C@H]2O)cc2c([C@H]3Oc4cc(O)cc(O)c4C[C@H]3O)cc(O)c(O)c12	Fulfilled

meta.source: PubChem BioAssay AID1159580
